system: LXFL 529; experiment: NCI tumour cell line growth inhibition, 48 h
Activity calls are given as the source filed them. Cut-off read from the data, not from the text of the source: active = GI50 up to about 1.1 µM and inactive = higher.
Possible outcomes: active, inactive

| molecule | experimental.target | class.assignment |
| --- | --- | --- |
| CCN1N=CSC12C(=O)N(c1ccccc1)C(=O)N2c1ccccc1 (stereo not drawn) | LXFL 529 | inactive |
| CCCC1C[C@H]2CCCCN2[C@H]2CCCN12 (stereo partly drawn) | LXFL 529 | inactive |
| Cc1ccc(S(=O)(=O)Nc2cccc3c(=O)nc[nH]c23)cc1 | LXFL 529 | inactive |
| Cc1c2cc[n+](C)cc2c(C)c2c1[nH]c1ccc(OC(C)C)cc12 | LXFL 529 | active |
| CCOC(=O)NC1=C(N2CC2)C(=O)C(NC(=O)OCC)=C(N2CC2)C1=O | LXFL 529 | inactive |
| CC(C)CC(NC(=O)c1cccc(O)c1O)C(=O)NCc1cc(CNC(=O)C(CC(C)C)NC(=O)c2cccc(O)c2O)cc(CNC(=O)C(CC(C)C)NC(=O)c2cccc(O)c2O)c1 (stereo not drawn) | LXFL 529 | inactive |
| COC(=O)/C(=N\NC(N)=O)C(C(=O)C(=O)Nc1ccccc1C(=O)OC)c1nc2ccc(C(=O)c3ccccc3)cc2nc1O (stereo not drawn) | LXFL 529 | inactive |
| CC(=O)OC1CC2C(C)(C)C(=O)C=C[C@]2(C)C2CCC3(C)C(c4ccoc4)C(=O)[C@H]4O[C@]43[C@]12C (stereo partly drawn) | LXFL 529 | inactive |

---

tested on: EKVX; experiment: NCI tumour cell line growth inhibition, 48 h
Calls of active or inactive are those of the source. Rule as the data show it: active = GI50 up to about 1.1 µM and inactive = higher. Where a SMILES comes first, the peptide text is derived from it. [ ]: non-standard residue; d: D form. The star is where a group is joined. Hyp = O=C(O)[CH]1C[CH](O)CN1; Cbz = O=C(OCc1ccccc1)*
The entries below come with measured GI50 values attached.
measured.metric: GI50

| molecule | experimental.target | recorded.result |
| --- | --- | --- |
| NC(Cc1ccc(OCc2ccccc2)cn1)C(=O)OCc1ccccc1 (centres undefined) | EKVX | > 100 µM (inactive) |
| CC1CC[C@@]2(OC1)O[C@H]1C[C@H]3[C@@H]4CC[C@H]5C[C@@H](OC6OC(CO)C(OC7OC(CO)C(OC8OC(CO)C(O)C(OC9OC(C)C(OC%10OC(C)C(O)C(O)C%10O)C(O)C9O)C8OC8OCC(O)C(O)C8O)C(O)C7O)C(O)C6O)CC[C@]5(C)[C@H]4CC(=O)[C@]3(C)[C@H]1[C@@H]2C (some centres undefined) | EKVX | 22.1 µM (inactive) |
| N/N=C(/C=C1\C(=O)Nc2ccccc21)c1ccccc1 | EKVX | 32.9 µM (inactive) |
| O=C(c1ccccc1)c1nc2ccc(Cl)cc2c2c1CCCO2 | EKVX | > 100 µM (inactive) |
| O=c1cc(O)cc2n1CCC2 | EKVX | > 100 µM (inactive) |
| NS(=O)(=O)c1nnc(NS(=O)(=O)c2ccc([N+](=O)[O-])cc2)s1 | EKVX | > 100 µM (inactive) |
| c1ccc(-c2nnc(-c3nsc4ccccc34)o2)cc1 | EKVX | 41.4 µM (inactive) |
| c1ccc2c(c1)N=c1ccccc1=P21c2ccccc2Nc2ccccc21 | EKVX | 5.04 µM (inactive) |
| CN(C)c1ncnc2c1ncn2C1C=CC(COS(N)(=O)=O)C1 (centres undefined) | EKVX | > 100 µM (inactive) |
| CCOC(=O)C(C(=O)c1ccccc1)=C1NCCN1 | EKVX | > 100 µM (inactive) |
| O=C1Cc2c([nH]c3ccc(Br)cc23)-c2cc(O)c(O)cc2N1 | EKVX | > 100 µM (inactive) |
| COS(=O)(=O)OCCC(NC(=O)OCc1ccccc1)C(=O)OCc1ccccc1 (centres undefined) | EKVX | > 100 µM (inactive) |
| O=C1C(Cl)=C(Sc2nnc3c4ccccc4c4ccccc4c3n2)C(=O)c2ccccc21 | EKVX | 17.6 µM (inactive) |
| CC(=O)OCC1OC(n2c(-c3ccccc3)c(C(C)=O)c(-c3cccc4ccccc34)c(C#N)c2=S)C(OC(C)=O)C(OC(C)=O)C1OC(C)=O (centres undefined) | EKVX | 83.6 µM (inactive) |
| COc1ccc(C[C@]23CCC(=O)N2CCc2cc(OC)c(O)cc23)cc1O | EKVX | > 100 µM (inactive) |
| CCOC(=O)c1ccc(-c2ccc(Cl)cc2)[nH]1 | EKVX | 2.28 µM (inactive) |
| CN(C)CC/C(=N\Nc1ccccc1)c1ccccc1 | EKVX | 15.7 µM (inactive) |
| CCCCCCCCCCNC(=S)OCCCC | EKVX | 25.8 µM (inactive) |
| CC1=C(C)C(=O)C2=C(OCCCO2)C1=O | EKVX | 17.2 µM (inactive) |
| CC1=NN=C(N)NC1=CC(Sc1ccc(Cl)cc1)c1c(O)ccc2ccccc12 (centres undefined) | EKVX | 18 µM (inactive) |
| Cc1ccc(NC(=O)CC/C(CC(=O)c2ccc(Cl)cc2)=N\NC(=O)C(=O)NN)cc1C | EKVX | > 100 µM (inactive) |
| NC(=O)CNC(=O)C1CC(O)CN1C(=O)C1CCCN1C(=O)OCc1ccccc1 (stereo not drawn) (Cbz-Pro-[Hyp]-Gly-NH2; configuration not given here) | EKVX | > 100 µM (inactive) |
| CCOC(=O)c1cc(-c2ccc(Cl)cc2)c([N+](=O)[O-])n1C | EKVX | > 10 µM (inactive) |
| CCOC(=O)c1nc2cc(C(F)(F)F)ccc2nc1Oc1ccc(C(=O)OC)cc1 | EKVX | > 100 µM (inactive) |
| COc1cc2c(cc1O)C=NCC2 | EKVX | > 100 µM (inactive) |
| O=C1NC(=S)NC(=O)C1C(c1ccc([N+](=O)[O-])cc1)C1C(=O)NC(=S)NC1=O.c1ccncc1 | EKVX | > 100 µM (inactive) |
| COc1cc(-c2cc(OC)c(OC)c3ccc(Br)cc23)c2cc(Br)ccc2c1OC | EKVX | 85.9 µM (inactive) |
| CC(C)CC(NC(=O)c1cccc(O)c1O)C(=O)NCc1cc(CNC(=O)C(CC(C)C)NC(=O)c2cccc(O)c2O)cc(CNC(=O)C(CC(C)C)NC(=O)c2cccc(O)c2O)c1 (centres undefined) | EKVX | 12.6 µM (inactive) |
| CC(C)(C)C1CCC(=O)C(C(O)CC2CC(=O)N(c3ccccc3)C(=O)C2)C1 (centres undefined) | EKVX | > 100 µM (inactive) |
| CC(C)=C[C@H]1CCC2(OCCO2)[C@]1(C)CO | EKVX | 58.7 µM (inactive) |
| COc1ccc(C2c3cc4c(cc3OC(NNc3ccccc3)C2C)OCO4)cc1 (centres undefined) | EKVX | 3.75 µM (inactive) |
| O=c1cc(-c2ccccc2)c2cc3c(=O)ccoc3cc2o1 | EKVX | > 100 µM (inactive) |
| CCN(CC)CCn1c2c3ccccc3ccc2c2oc(=O)c3ccccc3c21 | EKVX | > 100 µM (inactive) |
| Cc1ccnc(NS(=O)(=O)c2ccc(NC3=CC(=O)C(=O)c4ccccc43)cc2)n1 | EKVX | > 100 µM (inactive) |
| COc1cc(/C=C2\N=C(c3ccccc3)N(c3ccc4c(c3)Sc3cc(N5C(=O)/C(=C/c6cc(OC)c(OC)c(OC)c6)N=C5c5ccccc5)ccc3N4)C2=O)cc(OC)c1OC | EKVX | 22.8 µM (inactive) |
| CCOP1(=O)C=CC(Cl)=C(C)C1 (centres undefined) | EKVX | 26.4 µM (inactive) |
| Cc1nnc(Sc2nc(C#N)c(C#N)nc2Sc2nnc(C)s2)s1 | EKVX | 19.3 µM (inactive) |
| NC(=S)N/N=C1\C(=O)C=C(Nc2ccc(Cl)cc2Cl)c2ccccc21 | EKVX | 22.1 µM (inactive) |
| COc1ccc(Oc2nc3cc(C(F)(F)F)ccc3nc2C(C)C)cc1 | EKVX | 19.2 µM (inactive) |

---

tested on: M14; experiment: NCI tumour cell line growth inhibition, 48 h
Calls of active or inactive are those of the source. Rule as the data show it: active = GI50 up to about 1.1 µM and inactive = higher. Where a SMILES comes first, the peptide text is derived from it. The star is where a group is joined. Boc = CC(C)(C)OC(=O)*

| compound | GI50 |
| --- | --- |
| CC(=O)Nc1ccc(/N=C2\C(c3ccccc3)=C(SC3=C(c4ccccc4)/C(=N\c4ccc(NC(C)=O)cc4)c4ccccc43)c3ccccc32)cc1 | 27 µM (inactive) |
| COC(=O)c1cc(C)ccc1/C=C1\Cc2c(C)cc(C)cc2C1=O | 17.3 µM (inactive) |
| CS(=O)(=O)Nc1ccc(Nc2c3ccccc3nc3ccccc23)cc1 | 3.37 µM (inactive) |
| CC(C)=C[C@H]1CCC2(OCCO2)[C@]1(C)CO | > 100 µM (inactive) |
| CN(C)/C(N)=N\C#N | > 100 µM (inactive) |
| CC(C)(C)OC(=O)NC(Cc1ccccc1)C(=O)N1CCCC1C(N)=O (stereo not drawn) (Boc-Phe-Pro-NH2; configuration not given here) | > 100 µM (inactive) |
| CN1CC=C(C#CC(C)(C)O)CC1 | > 37.5 µM (inactive) |
| CC(C)(C)[Si](C)(C)OCC1CCC(n2cnc3c(=O)[nH]cnc32)O1 (stereo not given) | > 100 µM (inactive) |
| CCOC(=O)Oc1cc2ccsc2c2c1c1ccccc1n2C(=O)OCC | 31.3 µM (inactive) |
| COc1cc(O)c2c(=O)c(OC)c(-c3ccc4c(c3)OCO4)oc2c1OC | > 50 µM (inactive) |
